# studySystem: FGFR2 (Homo sapiens (Human))
# Sequence (P21802 22-821): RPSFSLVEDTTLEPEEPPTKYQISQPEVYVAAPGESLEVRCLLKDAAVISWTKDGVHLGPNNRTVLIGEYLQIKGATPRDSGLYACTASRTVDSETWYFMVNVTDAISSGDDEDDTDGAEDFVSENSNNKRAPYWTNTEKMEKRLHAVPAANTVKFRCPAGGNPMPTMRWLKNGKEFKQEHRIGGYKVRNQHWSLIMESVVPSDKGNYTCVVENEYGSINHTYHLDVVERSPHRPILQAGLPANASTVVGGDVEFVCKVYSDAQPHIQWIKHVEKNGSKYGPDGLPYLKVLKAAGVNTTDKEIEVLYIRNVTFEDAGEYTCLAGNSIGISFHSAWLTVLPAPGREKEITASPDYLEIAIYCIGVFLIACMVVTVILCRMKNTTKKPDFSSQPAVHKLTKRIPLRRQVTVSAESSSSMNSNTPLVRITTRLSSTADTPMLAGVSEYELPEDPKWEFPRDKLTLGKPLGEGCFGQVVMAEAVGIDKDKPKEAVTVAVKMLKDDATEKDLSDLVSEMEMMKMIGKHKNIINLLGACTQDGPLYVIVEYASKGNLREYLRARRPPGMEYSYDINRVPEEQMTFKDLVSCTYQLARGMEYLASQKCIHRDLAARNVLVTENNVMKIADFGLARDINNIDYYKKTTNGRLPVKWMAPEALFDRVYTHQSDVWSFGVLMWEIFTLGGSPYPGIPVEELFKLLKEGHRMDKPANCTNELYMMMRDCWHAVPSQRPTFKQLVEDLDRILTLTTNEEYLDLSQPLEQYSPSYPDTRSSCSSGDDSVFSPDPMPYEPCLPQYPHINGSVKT
# testMethodNotes: Biochemical FGFR2 Caliper assay
pIC50: −log10 of the molar value.
measuredQuantity: pIC50

C=C(C)C(=O)Nc1ccc(-c2c(C3=CCCCO3)c3c(N)ncnc3n2C)cc1
4.00 to 6.00
C#Cc1cc(OCCO)c(-c2[nH]c3ncnc(N)c3c2-c2ccc(Oc3nccc(C)n3)c(F)c2)cn1
> 7.00
C#Cc1ncc(-c2c(-c3ccc(C(=O)NCC(F)(F)F)c(OC)c3)c3c(N)ncnc3n2C)c(C)c1F
> 7.00

Alright, here's another molecule for you.
**Query** Item CN(C)C/C=C/C(=O)Nc1ccc(-c2c(C3=CC[C@@H](C(=O)N4CCCC4)CC3)c3c(N)ncnc3n2C)cc1 (single isomer, unassigned) has what recorded pIC50?
**Result** 6.00 to 6.60

* * *

# studySystem: UniProt:P21802
# testMethodNotes: Biochemical FGFR2 Caliper assay
pIC50: −log10 of the molar value.
measuredQuantity: pIC50

**Query** Item C=C(C)C(=O)Nc1ccc(-c2c(C3=CC[C@H](C(=O)NC4CCCC4)CC3)c3c(N)ncnc3n2C)cc1 (single isomer, unassigned) [Example 957] has what recorded pIC50?
**Result** 6.60 to 7.00

**Query** Item C#Cc1nc(C)c(-c2c(-c3ccc(Oc4nccc(C)n4)cc3)c3c(N)ncnc3n2C)cc1F [Example 1171] has what recorded pIC50?
**Result** > 7.00

**Query** Item C#Cc1ccc2c(n1)CCCn1c-2c(-c2ccc(Oc3nccc(C)n3)c(F)c2)c2c(N)ncnc21 [Example 1443] has what recorded pIC50?
**Result** 6.60 to 7.00

* * *

# studySystem: UniProtKB P21802
# testMethodNotes: Biochemical FGFR2 Caliper assay
Recorded IC50 values for a group of compounds are listed next.

**Query** Item C#Cc1cc(C)c(-c2c(C3=CC[C@@H](C(=O)N4CCC[C@H]4COC)CC3)c3c(N)ncnc3n2C)cn1 (single isomer, unassigned) has what recorded IC50?
**Result** < 100 nM

**Query** Item `C#Cc1ncc(-c2[nH]c3ncnc(N)c3c2-c2ccc(Oc3nccc(C)n3)cc2)c(C)n1` has what recorded IC50?
**Result** 250 to 1000 nM

**Query** Item `C=C(C)C(=O)Nc1ccc(-c2c(-c3cnc4nncn4c3)c3c(N)ncnc3n2C)cc1` has what recorded IC50?
**Result** 1000 to 100000 nM

**Query** Item C=CC(=O)N1CCC(c2c(-c3ccc(OC4CC4)nc3)c3c(N)ncnc3n2C)C1 (stereo not drawn) has what recorded IC50?
**Result** 100 to 250 nM

**Query** Item `C=Cc1nc2cc(-c3c(-c4ccc(C(=O)N5CCCC5)cc4)c4c(N)ncnc4n3C)ccc2n1C` has what recorded IC50?
**Result** 1000 to 100000 nM

**Query** Item C=CC(=O)N1CC=C(c2c(-c3ccc(Oc4cccc(C)n4)cc3)c3c(N)ncnc3n2C)[C@H]1C (single isomer, unassigned) has what recorded IC50?
**Result** 100 to 250 nM

**Query** Item `C=C(C)C(=O)Nc1ccc(-c2cn3ncnc(N)c3c2-c2ccc(Oc3ncc(F)cn3)c(F)c2)cc1` has what recorded IC50?
**Result** 1000 to 100000 nM

**Query** Item `C=C(C)C(=O)Nc1ccc(-c2cn3ncnc(N)c3c2-c2ccc(C(=O)NCC(C)(C)OC)cc2)cc1` has what recorded IC50?
**Result** 250 to 1000 nM

**Query** Item `C=Cc1ncc(-c2c(-c3ccc(Oc4nccc(C)n4)cc3)c3c(N)ncnc3n2C)cn1` has what recorded IC50?
**Result** 100 to 250 nM

**Query** Item `C=C(C)C(=O)Nc1ccc(-c2c(-c3ccc4oc(C)nc4c3)c3c(N)ncnc3n2C)cc1` has what recorded IC50?
**Result** 250 to 1000 nM
